Reference source: patent US11548899B2

molecular target: recombinant BRD4 BD1 (Homo sapiens, UniProt O60885); construct: recombinant BRD4 BD1 and BRD4 BD2 proteins; experiment: Competitive fluorescence-polarization (FP) binding assay, BRD4 BD1; conditions: FP competitive binding; protein 10 nM, probe 1.5 nM; read-out: IC50 (nM) BRD4 BD1
Observed Property: log10 IC50 (log10 of the value in nM)

{"Compound": "Cc1nnc2n1-c1cccc(Nc3ccccc3)c1COC2", "Target System": "recombinant BRD4 BD1 (Homo sapiens, UniProt O60885)", "Observed Property": "log10 IC50", "Readout Number": 4.16}
{"Compound": "Cc1sc2c(c1Cc1ccccc1)CN(C(=O)OCc1ccccc1)[C@H](C)c1nnc(C)n1-2", "Target System": "recombinant BRD4 BD1 (Homo sapiens, UniProt O60885)", "Observed Property": "log10 IC50", "Readout Number": 2.36}
{"Compound": "Cc1sc2c(c1Cc1ccccc1)CN(CC1CC1)[C@@H](C)c1nnc(C)n1-2", "Target System": "recombinant BRD4 BD1 (Homo sapiens, UniProt O60885)", "Observed Property": "log10 IC50", "Readout Number": 2.79}
{"Compound": "Cc1sc2c(c1Cc1ccccc1)CN(C)Cc1nnc(C)n1-2", "Target System": "recombinant BRD4 BD1 (Homo sapiens, UniProt O60885)", "Observed Property": "log10 IC50", "Readout Number": 2.78}
{"Compound": "Cc1nnc2n1-c1ccc(C3CCOCC3)c(Cc3ccccc3)c1COC2", "Target System": "recombinant BRD4 BD1 (Homo sapiens, UniProt O60885)", "Observed Property": "log10 IC50", "Readout Number": 4.26}
{"Compound": "Cc1sc2c(c1Br)CN(C(=O)OCc1ccccc1)[C@@H](C)c1nnc(C)n1-2", "Target System": "recombinant BRD4 BD1 (Homo sapiens, UniProt O60885)", "Observed Property": "log10 IC50", "Readout Number": 4.69}
{"Compound": "Cc1sc2c(c1C1CCc3ccccc31)COCc1nnc(C)n1-2 (stereo not drawn)", "Target System": "recombinant BRD4 BD1 (Homo sapiens, UniProt O60885)", "Observed Property": "log10 IC50", "Readout Number": 2.46}
{"Compound": "Cc1nnc2n1-c1ccc(-c3ccoc3)c(Cc3ccccc3)c1COC2", "Target System": "recombinant BRD4 BD1 (Homo sapiens, UniProt O60885)", "Observed Property": "log10 IC50", "Readout Number": 2.73}
{"Compound": "Cc1sc2c(c1Cc1ccccc1)COC(CC(=O)OC(C)(C)C)c1nnc(C)n1-2 (stereo not drawn)", "Target System": "recombinant BRD4 BD1 (Homo sapiens, UniProt O60885)", "Observed Property": "log10 IC50", "Readout Number": 2.23}
